# protocol.summary: Cytotoxicity against human MCF10A cells assessed as reduction in cell viability at 50 uM incubated for 4 days by MTT assay
# Format: cell-based, MCF-10A
observable: viability at 96 h, 50 µM (%)
Please give a number only; it is taken to be in %.

viability at 96 h, 50 µM in this record for "CCc1c(C(=O)NCCc2ccc(N3CCCCC3)cc2)oc2ccc(Cl)cc12" : 82

viability at 96 h, 50 µM in this record for "Cc1c(C(=O)NCCc2ccccc2)oc2ccc(Cl)cc12" : 87

viability at 96 h, 50 µM in this record for "Cc1c(C(=O)N2CCN(c3ccccc3)CC2)oc2ccc(Cl)cc12" : 92

* * *

# protocol.summary: Cytotoxicity against human MCF10A cells assessed as reduction in cell viability at 50 uM incubated for 4 days by MTT assay
# Assay type: cell-based, MCF-10A
What viability at 96 h, 50 µM was measured for each of the following?

viability at 96 h, 50 µM in this record for "Cc1c(C(=O)NCCc2ccc(N3CCOCC3)cc2)oc2ccc(Cl)cc12" : 84%

viability at 96 h, 50 µM in this record for "Cc1c(C(=O)NCCc2ccc(N3CCCCC3)cc2)oc2ccc(Cl)cc12" : 79%

viability at 96 h, 50 µM in this record for "CCc1c(C(=O)NCCc2ccc(N(C)C)cc2)oc2ccc(Cl)cc12" : 85%

viability at 96 h, 50 µM in this record for "CCc1c(C(=O)N2CCC(Cc3ccccc3)CC2)oc2ccc(Cl)cc12" : 90%

viability at 96 h, 50 µM in this record for "CCc1c(C(=O)NCCc2ccc(N3CCCC3)cc2)oc2ccc(Cl)cc12" : 89%

viability at 96 h, 50 µM in this record for "CCc1c(C(=O)NCCc2ccc(N3CCOCC3)cc2)oc2ccc(Cl)cc12" : 91%

viability at 96 h, 50 µM in this record for "Cc1c(C(=O)NCCc2ccc(N3CCCC3)cc2)oc2ccc(Cl)cc12" : 89%

viability at 96 h, 50 µM in this record for "CCc1c(C(=O)N2CCN(c3ccccc3)CC2)oc2ccc(Cl)cc12" : 82%

viability at 96 h, 50 µM in this record for "Cc1c(C(=O)N2CCC(Cc3ccccc3)CC2)oc2ccc(Cl)cc12" : 96%

viability at 96 h, 50 µM in this record for "CCc1c(C(=O)NCCc2ccccc2)oc2ccc(Cl)cc12" : 89%

viability at 96 h, 50 µM in this record for "Cc1c(C(=O)NCCc2ccc(N(C)C)cc2)oc2ccc(Cl)cc12" : 90%
